pIC50: −log10 of the molar value.
measured_metric: pIC50

In: Tell me reported pIC50 for NC(=O)c1nn(CC(=O)N(CC(=O)NCc2cccc(Cl)c2F)[C@H]2C[C@H](N)C2)c2ccccc12 [169c] , tested with Factor D (Homo sapiens).
Sequence (P00746 26-253): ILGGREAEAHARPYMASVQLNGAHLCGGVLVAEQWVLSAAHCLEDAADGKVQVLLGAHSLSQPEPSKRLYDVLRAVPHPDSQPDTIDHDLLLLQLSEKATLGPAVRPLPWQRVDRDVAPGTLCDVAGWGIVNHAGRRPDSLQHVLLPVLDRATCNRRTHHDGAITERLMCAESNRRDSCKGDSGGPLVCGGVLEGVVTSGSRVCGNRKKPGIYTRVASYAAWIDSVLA
Out: > 6.00

In: // lookup pIC50 | system=Factor D (Homo sapiens) | key= C[C@H](CO)N(CC(=O)NCc1cccc(Cl)c1F)C(=O)Cn1nc(C(N)=O)c2cc(NC(=O)OC(C)(C)C)ccc21 [345e]
Out: > 6.00

In: State its pIC50 on Factor D (Homo sapiens): NC(=O)c1nn(CC(=O)N(CC(=O)Nc2cncc(Br)n2)[C@H]2C[C@H](N)C2)c2ccccc12 [350c]
Out: > 6.00

In: What pIC50 appears in the records for this compound with Factor D (Homo sapiens)? Nc1ncnc2c1ccn2CC(=O)N(CC(=O)Nc1cccc(Br)n1)C1CC1 [56d]
Out: 5.00 to 6.00

In: Give pIC50 (Factor D (Homo sapiens)) of the following compound: CC(=O)c1nn(CC(=O)N(CC(=O)NCc2cccc(Cl)c2F)[C@H]2C[C@H](O)C2)c2ccccc12 [183a]
Out: > 6.00

In: Enter reported pIC50 observed with Factor D (Homo sapiens) for NC(=O)c1nn(CC(=O)N(CC(=O)Nc2cccc(Br)n2)[C@H]2C[C@H](N)C2)c2ccccc12 [349d]
Out: > 6.00

In: Request: pIC50, test system Factor D (Homo sapiens), entry CC(C)(C)OC(=O)N[C@H]1C[C@H](CN(CC(=O)NCc2cccc(Cl)c2F)C(=O)Cn2nc(C(N)=O)c3ccccc32)C1 [161b]
Out: 5.00 to 6.00

In: Which measured pIC50 belongs to NC(=O)c1nn(CC(=O)N(CC(=O)NCc2cccc(Cl)c2F)[C@H]2C[C@@H](N)C2)c2ccccc12 [153a] , tested on Factor D (Homo sapiens)?
Out: > 6.00

In: # returns recorded pIC50 (system: Factor D (Homo sapiens)) for CC(=O)c1cn(CC(=O)N(CC(=O)NCc2cccc(Cl)c2F)C(C)C)c2ccc(C#Cc3cccnc3)cc12 [131a]
Out: > 6.00

In: Find pIC50 (Factor D (Homo sapiens)) for the entry Nc1ncnc2c1ccn2CC(=O)N(CC(=O)NCc1cccc(Cl)c1F)C1CC1 [63a]
Out: 5.00 to 6.00

In: Entry NC(=O)c1nn(CC(=O)N(CC(=O)NCc2cccc(Cl)c2F)[C@H]2C[C@H](O)C2)c2ccccc12 [110b] , system Factor D (Homo sapiens): what pIC50 was measured?
Out: > 6.00

In: Test system Factor D (Homo sapiens); read-out pIC50; what value for CC(C)N(CC(=O)NCc1cccc(Cl)c1F)C(=O)Cn1cc(C#N)c2c(N)ncnc21 [60a] ?
Out: 5.00 to 6.00

In: Enter reported pIC50 observed with Factor D (Homo sapiens) for NC(=O)c1nn(CC(=O)N(CC(=O)NCc2cccc(Cl)c2F)[C@H]2C[C@H](N)C2)c2ccc([N+](=O)[O-])cc12 [347b]
Out: > 6.00

In: Kindly state the measured pIC50 obtained for NC(=O)c1nn(CC(=O)N(CC(=O)NCc2cccc(Cl)c2F)[C@H]2C[C@@H](O)C2)c2ccccc12 [104b] with Factor D (Homo sapiens).
Out: > 6.00

In: Lab note: need pIC50 with Factor D (Homo sapiens) for entry NC(=O)c1nn(CC(=O)N(CC(=O)NCc2cccc(Cl)c2F)C[C@H]2C[C@H](N)C2)c2ccccc12 [161c] , please look it up.
Out: > 6.00

In: What measured pIC50 is associated with NC(=O)c1ncnc2c1ccn2CC(=O)N(CC(=O)Nc1cncc(Br)n1)C1CC1 [84a] on Factor D (Homo sapiens)?
Out: < 5.00

FYI, the data here is from patent EP3925956B1.
